Reference source for all entries: patent US20220380463A1

# experimental-system: T1, human CD3 on CD3+ Jurkat cells (human, UniProt P07766 23-207)
# T1 construct: whole, on cells; Native CD3 complex on cells; the other CD3 chains are not specified for this assay; also called Human CD3+ Jurkat
# T1 sequence (P07766 23-207): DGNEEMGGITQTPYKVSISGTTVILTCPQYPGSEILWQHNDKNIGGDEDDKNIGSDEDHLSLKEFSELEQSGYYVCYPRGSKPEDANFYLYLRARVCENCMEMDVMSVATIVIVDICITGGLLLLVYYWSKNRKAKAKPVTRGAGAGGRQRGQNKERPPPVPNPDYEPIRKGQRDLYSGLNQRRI
# test-summary: flow cytometry on CD3+ Jurkat cells, ratio of MFI at pH 6.0 to pH 7.4
Output y for records whose MFI pH 6.0/MFI pH 7.4 is lower than 4, n for records at or above 4.

Ask: Just wondering, is MFI pH 6.0/MFI pH 7.4 of SAD10319_P03_B09 (ADI-48639) (antibody, V domains shown, IgG; also called Ab24) VH: QVQLVQSGAEVKKPGASVKVSCKASGYTFTEYDMHWVRQAPGQRLEWMGWIDAGTGATVYSQKFQGRVTITRDTSASTAYMELSSLRSEDTAVYYCARDAYGRYFYDHWGQGTLVTVSS VL: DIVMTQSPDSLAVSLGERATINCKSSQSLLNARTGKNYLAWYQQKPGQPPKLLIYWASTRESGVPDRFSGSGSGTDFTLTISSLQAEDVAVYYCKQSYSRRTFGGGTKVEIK below 4?
Result: n

Ask: Report whether reported MFI pH 6.0/MFI pH 7.4 is lower than 4 (strictly) for SAD10318_P01_G02 (ADI-48586) (antibody, V domains shown, IgG; also called Ab25) VH: QVQLVQSGAEVKKPGASVKVSCKASGFNIKDYYMHWVRQAPGQRLEWMGWIDLENANTIYDAKFQGRVTITRDTSASTAYMELSSLRSEDTAVYYCARDAYHHYFYDVWGQGTLVTVSS VL: DIVMTQSPDSLAVSLGERATINCKSSQSLLNARTGKNHLAWYQQKPGQPPKLLIYWASTRESGVPDRFSGSGSGTDFTLTISSLQAEDVAVYYCKQSYSHRTFGGGTKVEIK
Result: n

Ask: Check if MFI pH 6.0/MFI pH 7.4 falls below 4 for SAD10319_P02_A05 (ADI-48629) (antibody, V domains shown, IgG; also called Ab255) VH: QVQLVQSGAEVKKPGASVKVSCKASGYTFDSYAMHWVRQAPGQRLEWMGWINPNTGATTYSQKFQGRVTITRDTSASTAYMELSSLRSEDTAVYYCARDHYGHYFYDVWGQGTLVTVSS VL: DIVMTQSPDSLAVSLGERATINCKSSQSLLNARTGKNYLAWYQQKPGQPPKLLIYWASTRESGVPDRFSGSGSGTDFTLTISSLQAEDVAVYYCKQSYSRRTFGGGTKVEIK .
Result: y

Ask: Threshold test, MFI pH 6.0/MFI pH 7.4 < 4: SAD10318_P03_C08 (ADI-48603) (antibody, V domains shown, IgG; also called Ab197) VH: QVQLVQSGAEVKKPGASVKVSCKASGFNIKDYYMHWVRQAPGQRLEWMGWIDLENANTIYDAKFQGRVTITRDTSASTAYMELSSLRSEDTAVYYCARDHYGHYFYDVWGQGTLVTVSS VL: DIVMTQSPDSLAVSLGERATINCKSSQSLLHARTGKNHLAWYQQKPGQPPKLLIYWASTRESGVPDRFSGSGSGTDFTLTISSLQAEDVAVYYCKQSHSHRTFGGGTKVEIK
Result: y

Ask: Answer whether the binder SAD10318_P04_D11 (ADI-48616) (antibody, V domains shown, IgG; also called Ab219) VH: QVQLVQSGAEVKKPGASVKVSCKASGFNIKDYYMHWVRQAPGQRLEWMGWIDLENANTIYDAKFQGRVTITRDTSASTAYMELSSLRSEDTAVYYCARDAYGHYFYDVWGQGTLVTVSS VL: DIVMTQSPDSLAVSLGERATINCKSSQSLLNARTGHNHLAWYQQKPGQPPKLLIYWASTRESGVPDRFSGSGSGTDFTLTISSLQAEDVAVYYCHQSYSHRTFGGGTKVEIK has MFI pH 6.0/MFI pH 7.4 strictly less than 4
Result: y

Ask: Identify whether the binder SAD10318_P04_H11 (ADI-48617) (antibody, V domains shown, IgG; also called Ab223) VH: QVQLVQSGAEVKKPGASVKVSCKASGFNIKDYYMHWVRQAPGQRLEWMGWIDLENANTIYDAKFQGRVTITRDTSASTAYMELSSLRSEDTAVYYCARDHYGRYFYDHWGQGTLVTVSS VL: DIVMTQYPDSLAVSLGERATINCKSSQSLLNAHTGHNYLAWYQQKPGQPPKLLIYWASTRESGVPDRFSGSGSGTDFTLTISSLQAEDVAVYYCHQSYSHRTFGGGTKVEIK records MFI pH 6.0/MFI pH 7.4 below 4.
Result: y
